Test system: U937
Experiment: cells
Set-up: species or system AML cell lines (8); Secondary HTS, 10-point dose-response in triplicate, Cell Titer Glo viability, four-parameter fit EC50
Details: Homo sapiens, U-937, 72 h, read-out: U937
pEC50: −log10 of the molar value.
# pEC50 >= 6 gives rule met, anything below gives rule not met

# compound, classification
measured = [
    ("NC(=O)c1cccc2ncc(-c3ccc(Cl)cc3)nc12", "rule not met"),
    ("Cc1[nH]c2ccccc2c1CCNCc1ccc(/C=C/C(=O)NO)cc1", "rule met"),
    ("CNC(=O)c1c(F)cccc1Nc1nc(Nc2cc3c(ccn3C(=O)CN(C)C)cc2OC)nc2[nH]ccc12 [SJ000821585, GSK1838705A]", "rule not met"),
    ("CN[C@@H]1C[C@H]2O[C@@](C)([C@@H]1OC)n1c3ccccc3c3c4c(c5c6ccccc6n2c5c31)C(=O)N[C@H]4O [SJ000784325, 7-HYDROXYSTAUROSPORINE]", "rule met"),
    ("C=C1CCCC2(C)C[C@H]3OC(=O)C(=C)[C@H]3CC12 (stereo in doubt)", "rule not met"),
    ("O=C(Nc1cc(Cl)cc2c1[nH]c1cnccc12)c1cccnc1", "rule not met"),
    ("Cn1cc(-c2cnn3c(N)c(Br)c([C@@H]4CCCNC4)nc23)cn1", "rule not met"),
    ("CCn1c(C(=O)N(C2CC2)C2CC2)cc2c3c(ncn3C)c(Nc3cc(C)n(C)n3)nc21", "rule not met"),
    ("CCNC(=O)C[C@@H]1N=C(c2ccc(Cl)cc2)c2cc(OC)ccc2-n2c(C)nnc21", "rule not met"),
    ("CCCCCCCCCCCCCCCc1cccc(O)c1C(=O)O", "rule not met"),
    ("Cc1ccc(S(=O)(=O)n2c(N)nc3ccccc32)cc1", "rule not met"),
]
